Source of measurements: PubChem BioAssay (NCI)

TGI values by entry
# System: EKVX NSCLC
# test: NCI tumour cell line growth inhibition, 48 h

Take a look at these entries with their results.
compound | TGI
O=[N+]([O-])c1ccc2[nH]nc(OCc3ccccc3Cl)c2c1 | > 100 µM
NC(N)=Nc1ccc(CC(N)NCC(=O)O)cc1 (stereo unspecified) | > 25 µM
CCCCCC1=CC(=O)C1(Cl)Cl | 49.6 µM

Look up TGI with EKVX NSCLC for this compound: CC(=O)N1C(C(=O)NC2CCCCC2)CSC1c1ccccc1 (stereo unspecified)
> 100 µM

Hi! What's the reported TGI for C#CCn1c(=O)c2ccccc2n(CC#C)c1=O on EKVX NSCLC?
> 10 µM

So what TGI did N#C/C(=C\c1cccc(Cl)c1Cl)c1ccccc1 get with EKVX NSCLC?
> 100 µM

* * *

Readings of TGI for the listed molecules
# Test system: SF-295 CNS
# test: NCI tumour cell line growth inhibition, 48 h

molecule | observed-result
O=S(=O)(c1ccccc1)N1CCN(S(=O)(=O)c2ccccc2)c2ccccc21 | > 100 µM

// moving on: another record for TGI
What value of measured TGI is listed for COc1nncc2[nH]c(-c3ccccc3)cc12 ?
> 100 µM

* * *

# Tested on: MOLT-4 leukemia
# test: NCI tumour cell line growth inhibition, 48 h
# reported TGI; entries follow
Reply with just the number (in µM).

Look over these answered cases.
molecule | TGI [µM]
CN(C)CCn1c2c3ccccc3ccc2c2oc(=O)c3ccccc3c21 | 7.25
COc1ccc(-n2c(C)nc3ccc(NC(=S)Nc4ccccc4)cc3c2=O)cc1 | 99.8
COc1cc(/C(C#N)=C/c2nc3c(N4CCOCC4)nc(Cl)nc3n2C)cc(OC)c1OC | 27.5
CCCCCCCCCCCCC(O)c1ccc(C#CCCCCCCCCCO)o1 (stereo not given) | 26.7
O=C(/C=C/c1ccccc1)C[C@@H](O)C[C@@H]1CC=CC(=O)O1 | 12.5

Param item = CC1(C)O[C@H]2OC(CO[Si](C)(C)C(C)(C)C)C(N=[N+]=[N-])[C@H]2O1 (stereo not given in full) ; retrieve measured TGI.
33.9

State the recorded TGI for this entry: c1ccc(Sc2ncnc3ccccc23)cc1
36

* * *

# Tested on: MDA-MB-435
# test: NCI tumour cell line growth inhibition, 48 h
Listed molecules paired with reported TGI

Here's what some known entries look like.
molecule | TGI
COc1cc(S(=O)(=O)Nc2nc(-c3ccc(N4C(=O)C(CC(=O)O)SC4c4cccs4)cc3)cs2)ccc1Cl (stereo not drawn) | > 100 µM
O=S(=O)(c1ccccc1)N1CCN(S(=O)(=O)c2ccccc2)c2ccccc21 | > 100 µM

# context switch: different molecule, same TGI
Requested read-out: TGI. Entry: CCOC(=O)Nc1sc2c(c1C#N)CCCC2
> 100 µM

* * *

# System: OVCAR-3 ovarian
# test: NCI tumour cell line growth inhibition, 48 h
The reader will find reported TGI values listed item by item below.

Field: example entries. Status: answers known.
compound | observed-result
Cc1ccccc1OC(C)C(=O)NN1C(=O)CSC1c1ccccc1 (configuration not stated) | > 100 µM
CCCCCC1=CC(=O)C1(Cl)Cl | 27 µM
COP(=O)(OC)C1=c2c(C)noc2=C2C=COC2C1=O (configuration not stated) | > 100 µM

Please report the recorded TGI for CC(=O)c1c2c(c3ccccc3c1O)O[C@@H]1OCC[C@H]21 .
> 100 µM

Which measured TGI value corresponds to O=c1[nH]c(=S)[nH]c2c1C(c1ccc([N+](=O)[O-])cc1)c1c([nH]c(=S)[nH]c1=O)O2 ?
> 100 µM

Return reported TGI; argument: COc1ccc(CCN=C2NC(=O)/C(=C/c3ccc4ncccc4c3)S2)cc1
> 25 µM

Can you share its TGI? I mean this compound: Cc1ccccc1C(=N)c1ccccc1Cc1cccc2ccccc12
26.6 µM

GET /values?readout=TGI&item= COC(=O)c1c(C)nc2c1cc(O)c1[nH]c(C)c(C)nc12
> 100 µM

Data request, read-out TGI, for N[C@@H](CCC(=O)NCP(=O)(O)O)C(=O)O
> 100 µM

TGI lookup needed for CCN(CC)C(=S)N/N=C/c1cc([N+](=O)[O-])ccc1O , thanks.
13.3 µM

Name the recorded TGI for O=C(CCCSc1nc(-c2ccccc2)cc(-c2ccccc2)n1)NO .
6.16 µM

Consider the compound shown here: N#Cc1c[nH]n2c(N=Nc3ccc(Cl)cc3)c(O)nc12 What is its recorded TGI?
> 100 µM

Query: TGI; subject: O=C(/C=C/c1ccc([N+](=O)[O-])cc1)c1ccc(NCc2nc3ccccc3[nH]2)cc1
11.8 µM

TGI lookup needed for COc1cc(/C(C#N)=C/c2nc3c(N4CCOCC4)nc(Cl)nc3n2C)cc(OC)c1OC , thanks.
< 0.01 µM

// TGI lookup, key: CC(=O)NNc1nc(C)c(C(=O)/C=C/c2ccc(NC(C)=O)cc2)s1
> 100 µM

Please report the recorded TGI for O=C(Nc1ccccc1-c1nn(C(=S)Nc2ccccc2)c(=S)n(C(=S)Nc2ccccc2)c1=O)C(F)(F)F .
> 72.5 µM

Which TGI reading was recorded for the compound Oc1ccc(-c2nc3ccc(Br)cc3s2)cc1 ?
31.8 µM

Request the reported TGI associated with O=C(OCc1ccccc1)N1CCNCCN(C(=O)OCc2ccccc2)CCNCC1
> 100 µM

Which measured TGI value corresponds to C(=C(c1ccc(OC2CCCCO2)cc1)c1ccc(OC2CCCCO2)cc1)c1ccccc1 (configuration not stated) ?
1.75 µM

Entry COc1ccc2cc1Oc1ccc(cc1)C[C@H]1c3cc(c(OC)cc3CCN1C)Oc1c(O)c(OC)cc3c1[C@H](C2)N(C)CC3 : reported TGI = ?
46.8 µM

Fill blank: measured TGI of the compound COC(=O)CC(c1ccccc1)C1(c2ccccc2)SCCS1 (configuration not stated) is ____.
> 290 µM

* * *

# System: DU-145 prostate
# test: NCI tumour cell line growth inhibition, 48 h
parameter-measured: TGI

Some molecules with recorded TGI:
molecule | TGI
COc1cccc(C2SC(N)=Nc3c2c(C)nn3C(=O)c2ccccc2O)c1 (stereo not given) | > 10 µM
NS(=O)(=O)c1nnc(NC(=O)Nc2ccc(Cl)c(Cl)c2)s1 | > 100 µM
NC(N)=Nc1ccc(CC(N)NCC(=O)O)cc1 (stereo not given) | > 25 µM

Could you tell me which TGI is on file for O=c1[nH]c(=S)[nH]c2c1C(c1ccc([N+](=O)[O-])cc1)c1c([nH]c(=S)[nH]c1=O)O2 ?
> 100 µM

Param item = COc1ccc2nc(NC(=O)CSc3nnc4n3S(=O)(=O)c3ccccc3N4c3ccccc3)sc2c1 ; retrieve measured TGI.
> 100 µM

* * *

# System: HL-60(TB) leukemia
# test: NCI tumour cell line growth inhibition, 48 h
Let's look at some compounds and their measured TGI.

Dear colleague, I am looking for the recorded TGI of the following compound: CC(=O)O/N=C(/C)c1ccccc1O
> 100 µM

* * *

The compounds listed here are annotated with their TGI.
# Tested on: SN12C renal
# test: NCI tumour cell line growth inhibition, 48 h

Some compounds with known TGI results, for comparison:
compound | TGI
O=C(Nc1ccccc1-c1nn(C(=S)Nc2ccccc2)c(=S)n(C(=S)Nc2ccccc2)c1=O)C(F)(F)F | > 100 µM
COc1cccc(C2SC(N)=Nc3c2c(C)nn3C(=O)c2ccccc2O)c1 (stereo unspecified) | > 10 µM
c1ccc(Sc2ncnc3ccccc23)cc1 | 27.4 µM
COc1cccc(Nc2nc(-c3cccs3)nc3cc(OC)c(OC)cc23)c1 | 53.8 µM
Cc1ccccc1OC(C)C(=O)NN1C(=O)CSC1c1ccccc1 (stereo unspecified) | > 100 µM
Nc1nc(SCCC/C=C/I)nc2c1ncn2C1OC(COP(=O)(O)O)C(O)C1O (stereo unspecified) | > 100 µM
C(=C(c1ccc(OC2CCCCO2)cc1)c1ccc(OC2CCCCO2)cc1)c1ccccc1 (stereo unspecified) | 2.47 µM
CC(=O)NNc1nc(C)c(C(=O)/C=C/c2ccc(NC(C)=O)cc2)s1 | > 100 µM

Quick one: TGI for COC[C@H]1Cn2cc(-c3nc(Nc4ccnn4C)ncc3C)nc2C(=O)N1Cc1ccc(F)c(F)c1 ?
> 100 µM

Sample Cc1ccc(N(Cc2ccccc2)Cc2ccccc2)cc1 — what was its TGI?
> 100 µM

Report TGI for N#C/C(=C1/Sc2c(nc[nH]c2=O)N1c1ccccc1)c1nc2ccccc2[nH]1 please.
> 100 µM

* * *

Parameter: TGI. Scope: all listed entries.
# Tested on: UO-31 renal
# test: NCI tumour cell line growth inhibition, 48 h

Would you please look over these solved cases?
compound | observed-result
COc1ccc(C)cc1-c1cc(Sc2ccccc2)c(-c2cc(C)ccc2OC)o1 | > 31.6 µM
COc1ccc2nc(NC(=O)CSc3nnc4n3S(=O)(=O)c3ccccc3N4c3ccccc3)sc2c1 | > 100 µM
N#Cc1c[nH]n2c(N=Nc3ccc(Cl)cc3)c(O)nc12 | > 100 µM
O=CNc1ccc2c(c1)C(=O)c1ccccc1-2 | > 100 µM
C/C(=C\CBr)CCC(Br)C(C)(C)Br (stereo unspecified) | > 100 µM

Fill in: TGI of O=C(Cc1ccc(O)c(O)c1)NCc1c[nH]c2ccccc12 is ___
> 100 µM
